Test system: L1210
Assay: cells
Format: cell-based, mouse
Details: Table 1
Hi there, I'd appreciate the recorded IC50 for every entry that follows.
Answers are plain numbers, in nM.

CCCCCC(=O)N[C@@]1(CC)C[C@H]2CN(CCc3c([nH]c4ccccc34)[C@@](C(=O)OC)(c3cc4c(cc3OC)N(C)[C@H]3[C@@](O)(C(=O)OC)[C@H](OC(C)=O)[C@]5(CC)C=CCN6CC[C@]43[C@@H]65)C2)C1 [Compound 15] : 55

I need IC50 for every entry listed below, if you could help.
1. CC[C@]1(O)C[C@@H]2CN(CCc3c([nH]c4ccccc34)[C@@](C(=O)OC)(c3cc4c(cc3OC)N(C)[C@H]3[C@@](O)(C(=O)OC)[C@H](OC(C)=O)[C@]5(CC)C=CCN6CC[C@]43[C@@H]65)C2)C1 [Vinblastine (1), Vinblastine, reference compound]
2. C=CC(=O)N[C@@]1(CC)C[C@H]2CN(CCc3c([nH]c4ccccc34)[C@@](C(=O)OC)(c3cc4c(cc3OC)N(C)[C@H]3[C@@](O)(C(=O)OC)[C@H](OC(C)=O)[C@]5(CC)C=CCN6CC[C@]43[C@@H]65)C2)C1 [Compound 23]
3. CC[C@]1(NC(=O)C2CCCCC2)C[C@H]2CN(CCc3c([nH]c4ccccc34)[C@@](C(=O)OC)(c3cc4c(cc3OC)N(C)[C@H]3[C@@](O)(C(=O)OC)[C@H](OC(C)=O)[C@]5(CC)C=CCN6CC[C@]43[C@@H]65)C2)C1 [Compound 20]
4. CC[C@]1(NC(=O)C2CCCC2)C[C@H]2CN(CCc3c([nH]c4ccccc34)[C@@](C(=O)OC)(c3cc4c(cc3OC)N(C)[C@H]3[C@@](O)(C(=O)OC)[C@H](OC(C)=O)[C@]5(CC)C=CCN6CC[C@]43[C@@H]65)C2)C1 [Compound 19]
5. CCC1(NC(=O)C2CC2)CC2CN(CCc3c([nH]c4ccccc34)C(C(=O)OC)(c3cc4c(cc3OC)N(C)C3C(O)(C(=O)OC)C(OC(C)=O)C5(CC)C=CCN6CCC43C65)C2)C1 (centres unmarked) [Compound 17]
6. CC[C@]1(NC(=O)C(C)(C)C)C[C@H]2CN(CCc3c([nH]c4ccccc34)[C@@](C(=O)OC)(c3cc4c(cc3OC)N(C)[C@H]3[C@@](O)(C(=O)OC)[C@H](OC(C)=O)[C@]5(CC)C=CCN6CC[C@]43[C@@H]65)C2)C1 [Compound 14]
7. CC[C@]1(NC(=O)C(C)C)C[C@H]2CN(CCc3c([nH]c4ccccc34)[C@@](C(=O)OC)(c3cc4c(cc3OC)N(C)[C@H]3[C@@](O)(C(=O)OC)[C@H](OC(C)=O)[C@]5(CC)C=CCN6CC[C@]43[C@@H]65)C2)C1 [Compound 13]

[6, 7, 55, 30, 5.5, 2800, 70]

I need IC50 for every entry listed below, if you could help.
1. CC[C@]1(NC(=O)C(c2ccccc2)c2ccccc2)C[C@H]2CN(CCc3c([nH]c4ccccc34)[C@@](C(=O)OC)(c3cc4c(cc3OC)N(C)[C@H]3[C@@](O)(C(=O)OC)[C@H](OC(C)=O)[C@]5(CC)C=CCN6CC[C@]43[C@@H]65)C2)C1 [Compound 22]
2. CCC(=O)NC1(CC)CC2CN(CCc3c([nH]c4ccccc34)C(C(=O)OC)(c3cc4c(cc3OC)N(C)C3C(O)(C(=O)OC)C(OC(C)=O)C5(CC)C=CCN6CCC43C65)C2)C1 (centres unmarked) [Compound 12]
3. CCC1(NC(=O)Cc2ccccc2)CC2CN(CCc3c([nH]c4ccccc34)C(C(=O)OC)(c3cc4c(cc3OC)N(C)C3C(O)(C(=O)OC)C(OC(C)=O)C5(CC)C=CCN6CCC43C65)C2)C1 (centres unmarked) [Compound 21]

[760, 60, 55]

====

Test system: L1210
Assay: cells
Format: cell-based, mouse
Settings: Table 2
measurement_kind: log10 IC50 (log10 of the value in nM)
A difference of one corresponds to tenfold IC50; all values are log10 with IC50 in nM.

Answered cases to consult:
CCC1(NC(=O)c2ccc([N+](=O)[O-])cc2)CC2CN(CCc3c([nH]c4ccccc34)C(C(=O)OC)(c3cc4c(cc3OC)N(C)C3C(O)(C(=O)OC)C(OC(C)=O)C5(CC)C=CCN6CCC43C65)C2)C1 (centres unmarked) : 0.79
CCOc1ccc(C(=O)N[C@@]2(CC)C[C@H]3CN(CCc4c([nH]c5ccccc45)[C@@](C(=O)OC)(c4cc5c(cc4OC)N(C)[C@H]4[C@@](O)(C(=O)OC)[C@H](OC(C)=O)[C@]6(CC)C=CCN7CC[C@]54[C@@H]76)C3)C2)cc1Cl : 0.62
CC[C@]1(NC(=O)c2ccc(OC)c(Cl)c2)C[C@H]2CN(CCc3c([nH]c4ccccc34)[C@@](C(=O)OC)(c3cc4c(cc3OC)N(C)[C@H]3[C@@](O)(C(=O)OC)[C@H](OC(C)=O)[C@]5(CC)C=CCN6CC[C@]43[C@@H]65)C2)C1 : 0.57
CC[C@]1(NC(=O)c2cccc(S(=O)(=O)F)c2)C[C@H]2CN(CCc3c([nH]c4ccccc34)[C@@](C(=O)OC)(c3cc4c(cc3OC)N(C)[C@H]3[C@@](O)(C(=O)OC)[C@H](OC(C)=O)[C@]5(CC)C=CCN6CC[C@]43[C@@H]65)C2)C1 : 1.60
CCC1(NC(=O)c2ccccc2)CC2CN(CCc3c([nH]c4ccccc34)C(C(=O)OC)(c3cc4c(cc3OC)N(C)C3C(O)(C(=O)OC)C(OC(C)=O)C5(CC)C=CCN6CCC43C65)C2)C1 (centres unmarked) : 0.04

I need log10 IC50 for every entry listed below, if you could help.
1. CCC1(NC(=O)c2ccc(S(=O)(=O)F)cc2)CC2CN(CCc3c([nH]c4ccccc34)C(C(=O)OC)(c3cc4c(cc3OC)N(C)C3C(O)(C(=O)OC)C(OC(C)=O)C5(CC)C=CCN6CCC43C65)C2)C1 (centres unmarked)
2. CC[C@]1(NC(=O)c2ccc(Br)cc2)C[C@H]2CN(CCc3c([nH]c4ccccc34)[C@@](C(=O)OC)(c3cc4c(cc3OC)N(C)[C@H]3[C@@](O)(C(=O)OC)[C@H](OC(C)=O)[C@]5(CC)C=CCN6CC[C@]43[C@@H]65)C2)C1
3. CCC1(NC(=O)c2cccc(SC)c2)CC2CN(CCc3c([nH]c4ccccc34)C(C(=O)OC)(c3cc4c(cc3OC)N(C)C3C(O)(C(=O)OC)C(OC(C)=O)C5(CC)C=CCN6CCC43C65)C2)C1 (centres unmarked)

1.30
0.43
0.73

====

Tested on: L1210
Experiment: cells
Type: cell-based, mouse
Details: Table 2
Description: A population of cells (>1×10^6 cells/mL as determined with a hemocytometer) was diluted with Dulbecco's Modified Eagle Medium (DMEM, Gibco) containing 10% fetal bovine serum (FBS, Gibco) to give a final concentration of 30,000 cells/mL. To each well of a 96-well plate (Corning® Costar®) was added 100 μL of the cell media solution with a multichannel pipet. The test compounds were then added to the plate as follows: test compounds were diluted in DMSO to a concentration of 1 mM. […]
measurement_kind: IC50 (nM)
One number for each entry, in nM.

Answered cases to consult:
CC[C@]1(NC(=O)c2ccc(C(C)C)cc2)C[C@H]2CN(CCc3c([nH]c4ccccc34)[C@@](C(=O)OC)(c3cc4c(cc3OC)N(C)[C@H]3[C@@](O)(C(=O)OC)[C@H](OC(C)=O)[C@]5(CC)C=CCN6CC[C@]43[C@@H]65)C2)C1 : 5.4
CC[C@]1(NC(=O)c2ccc(Cl)c(Cl)c2)C[C@H]2CN(CCc3c([nH]c4ccccc34)[C@@](C(=O)OC)(c3cc4c(cc3OC)N(C)[C@H]3[C@@](O)(C(=O)OC)[C@H](OC(C)=O)[C@]5(CC)C=CCN6CC[C@]43[C@@H]65)C2)C1 : 8.5
CCCCc1ccc(C(=O)N[C@@]2(CC)C[C@H]3CN(CCc4c([nH]c5ccccc45)[C@@](C(=O)OC)(c4cc5c(cc4OC)N(C)[C@H]4[C@@](O)(C(=O)OC)[C@H](OC(C)=O)[C@]6(CC)C=CCN7CC[C@]54[C@@H]76)C3)C2)cc1 : 30

Kindly review the next compound as well.
Please give the measured IC50 for this compound: `CC[C@]1(NC(=O)c2cc(Cl)c(OC)c(Cl)c2)C[C@H]2CN(CCc3c([nH]c4ccccc34)[C@@](C(=O)OC)(c3cc4c(cc3OC)N(C)[C@H]3[C@@](O)(C(=O)OC)[C@H](OC(C)=O)[C@]5(CC)C=CCN6CC[C@]43[C@@H]65)C2)C1`
3.1

====

Test system: L1210
Assay: cells
Assay type: cell-based, mouse
Settings: Table 2
Method: A population of cells (>1×10^6 cells/mL as determined with a hemocytometer) was diluted with Dulbecco's Modified Eagle Medium (DMEM, Gibco) containing 10% fetal bovine serum (FBS, Gibco) to give a final concentration of 30,000 cells/mL. To each well of a 96-well plate (Corning® Costar®) was added 100 μL of the cell media solution with a multichannel pipet. The test compounds were then added to the plate as follows: test compounds were diluted in DMSO to a concentration of 1 mM. […]
measurement_kind: IC50 (nM)
Answers are plain numbers, in nM.

Answered cases to consult:
CC[C@]1(NC(=O)c2ccc(CC(C)C)cc2)C[C@H]2CN(CCc3c([nH]c4ccccc34)[C@@](C(=O)OC)(c3cc4c(cc3OC)N(C)[C@H]3[C@@](O)(C(=O)OC)[C@H](OC(C)=O)[C@]5(CC)C=CCN6CC[C@]43[C@@H]65)C2)C1 : 25
CCC1(NC(=O)c2cccc(C(C)C)c2)CC2CN(CCc3c([nH]c4ccccc34)C(C(=O)OC)(c3cc4c(cc3OC)N(C)C3C(O)(C(=O)OC)C(OC(C)=O)C5(CC)C=CCN6CCC43C65)C2)C1 (centres unmarked) : 7.5
CC[C@]1(NC(=O)c2ccc(NC(=O)OC(C)(C)C)c(C)c2)C[C@H]2CN(CCc3c([nH]c4ccccc34)[C@@](C(=O)OC)(c3cc4c(cc3OC)N(C)[C@H]3[C@@](O)(C(=O)OC)[C@H](OC(C)=O)[C@]5(CC)C=CCN6CC[C@]43[C@@H]65)C2)C1 : 5.6
CC[C@]1(O)C[C@@H]2CN(CCc3c([nH]c4ccccc34)[C@@](C(=O)OC)(c3cc4c(cc3OC)N(C)[C@H]3[C@@](O)(C(=O)OC)[C@H](OC(C)=O)[C@]5(CC)C=CCN6CC[C@]43[C@@H]65)C2)C1 [Vinblastine (1), Vinblastine, reference compound] : 6
CCC1(NC(=O)c2ccc(C3CCCCC3)cc2)CC2CN(CCc3c([nH]c4ccccc34)C(C(=O)OC)(c3cc4c(cc3OC)N(C)C3C(O)(C(=O)OC)C(OC(C)=O)C5(CC)C=CCN6CCC43C65)C2)C1 (centres unmarked) : 40

I need IC50 for every entry listed below, if you could help.
1. CC[C@]1(NC(=O)c2ccc(C)c(C)c2)C[C@H]2CN(CCc3c([nH]c4ccccc34)[C@@](C(=O)OC)(c3cc4c(cc3OC)N(C)[C@H]3[C@@](O)(C(=O)OC)[C@H](OC(C)=O)[C@]5(CC)C=CCN6CC[C@]43[C@@H]65)C2)C1
2. CC[C@]1(NC(=O)c2ccc(CNC(=O)OC(C)(C)C)cc2)C[C@H]2CN(CCc3c([nH]c4ccccc34)[C@@](C(=O)OC)(c3cc4c(cc3OC)N(C)[C@H]3[C@@](O)(C(=O)OC)[C@H](OC(C)=O)[C@]5(CC)C=CCN6CC[C@]43[C@@H]65)C2)C1
3. CC[C@]1(NC(=O)c2ccc(NS(C)(=O)=O)cc2)C[C@H]2CN(CCc3c([nH]c4ccccc34)[C@@](C(=O)OC)(c3cc4c(cc3OC)N(C)[C@H]3[C@@](O)(C(=O)OC)[C@H](OC(C)=O)[C@]5(CC)C=CCN6CC[C@]43[C@@H]65)C2)C1

3
0.76
0.4

// provenance: patent US10689381B2
